Measured apparent KD of MS2 coat protein, listed per entry.
- System: MS2 coat protein
- Assay Explanation: apparent KD of MS2 coat protein; higher = weaker reporter binding
- Assay Conditions: Eterna round: R107; input ligand: none
Number in µM, nothing else.

Chain: GGUCUGUGGAGCGAUACCAGCUUGAGUGUACUGGCCAGGUACAUGAGGAUCACCCAUGUAAGCCCUUGGCAGCGCUCCAGAGACC [#1 Exclusion - Theophylline B Attempt #17 (HarryS)]
Tested System: MS2 coat protein
apparent KD of MS2 coat protein [µM]: 0.00929
--
Chain: UUCUGGUCCCGUGAUACCAGAGACAUGAGGAUCACCCAUGUACAUGAGGAUCACCCAUGUUUCCCUUGGCAGCACUGCAGUGAGC [Exclusion Theophylline B GF 15]
Tested System: MS2 coat protein
apparent KD of MS2 coat protein [µM]: 0.261
--
Chain: UGUAUGUGAUCUGAUACCAGUCCAACUGGUAAAGCAUGAGGAUCACCCAUGCAAAAUUGGGACCCUUGGCAGCAGAUCGCAUACU
Tested System: MS2 coat protein
apparent KD of MS2 coat protein [µM]: 0.264

Ask: Note down apparent KD of MS2 coat protein recorded for UGAUCCUACAGAGAUACCAGUGCCGCUGAGUGACCAGACACAUGAGGAUCACCCAUGUAACACCCUUGGCAGCUCAACUAGAGGG [Same State Theophylline B GF19]
Reply: 0.0184

Ask: Output measured apparent KD of MS2 coat protein for this item: UUAGUAACGACGGCCGCCACUGAUUUUGGACAUGAGGAUCACCCAUGUAAAGAUCCUAGAAUGGUCAGGACCGGGUCUGAUAAUG [Exclusion Tryptophane B GF4]
Reply: 0.0353

Ask: Dear colleague, please send me the reported apparent KD of MS2 coat protein for "UGUAUGGACUGAAGGAGCGGGAAAAUAAGAUGAGGAUCACCCAUCUAAAAGGCGAAAGCCACCCAGGUAGGUCGCAGUCCAUACU" when you can.
Reply: 0.00899

Ask: Indicate its recorded apparent KD of MS2 coat protein; the sequence in question is UCGCUCUGGGUGGGAUCCGGAGAUGUGGAAGGAGCGCUGGAAACAGCAGGUAGGUCGCCAACGGACAUGAGGAUCACCCAUGUAC [Same State - Arginine A (Freestyle 18)]
Reply: 0.0265

Ask: Answer with the recorded apparent KD of MS2 coat protein of UAAAUAAUCUGGGUGUAGGUAAUAACAGAUACCAGCCAGAUAACUGGCCCUUGGCAGCUGAAAACAUGAGGAUCACCCAUGUAAA [Mat - Same State Theophlline A - Mod of Eli - D19] only.
Reply: 0.0806

Ask: For the sequence AGUUAAAUAUGUUAAUAACUAUUUACUGAAGGAGCGUGUUUUUACACAGGUAGGUCGCAGUGACAUGAGGAUCACCCAUGUAGUA [JR_SSArginiA_Sub012] , give its measured apparent KD of MS2 coat protein value.
Reply: 0.0375
